test system: Venturia inaequalis; assay: Apple Scab fungicidal activity (VENTIN); type: in vivo; conditions: 24 h, high volume, 1 Day Protectant, read-out: VENTIN % Control rating
observable: pest or weed control at 100 ppm

{"columns": ["line_notation", "experimental_value"],
 "data": [
  ["COc1ccnc(C(=O)N[C@@H](C)C(=O)O[C@@H](C)[C@H](Oc2ccc(F)cc2)c2ccccc2)c1OCOC(C)=O", "< 80%"],
  ["COc1ccnc(C(=O)N[C@@H](C)C(=O)O[C@@H](C)[C@H](Oc2ccccc2)c2ccccc2)c1OCOC(C)=O", "< 80%"],
  ["COc1ccnc(C(=O)N[C@@H](C)C(=O)O[C@@H](C)[C@H](Oc2ccccc2)c2ccc(C)cc2)c1OCOC(C)=O", "< 80%"],
  ["COc1ccccc1[C@@H](Oc1ccccc1)[C@H](C)OC(=O)[C@H](C)NC(=O)c1nccc(OC)c1OCOC(C)=O", "< 80%"],
  ["COc1ccnc(C(=O)N[C@@H](C)C(=O)O[C@@H](C)[C@H](Oc2ccccc2)c2ccc(F)cc2C)c1OCOC(C)=O", "< 80%"],
  ["COc1ccnc(C(=O)N[C@@H](C)C(=O)O[C@@H](C)[C@H](Oc2cc(F)cc(Cl)c2)c2ccccc2)c1OC(C)=O", "> 80%"]
]}

* * *

Some molecules, each annotated with its measured pest or weed control at 121.5 g/ha.
test system: Puccinia triticina; test: Wheat Brown Rust fungicidal activity (PUCCRT); type: in vivo; conditions: 24 h, Low Volume Cereal Activity at 121.5 g/Ha, 1 Day Protectant, read-out: PUCCRT 1DP (Wheat Brown Rust, 1 Day Protectant)

{"columns": ["molecule", "pest or weed control at 121.5 g/ha"],
 "data": [
  ["COc1ccnc(C(=O)N[C@@H](C)C(=O)O[C@@H](C)[C@H](Oc2ccccc2)c2cccc(-c3ccccc3)c2)c1OCOC(C)=O [Example 240]", "> 80%"],
  ["COc1ccnc(C(=O)N[C@@H](C)C(=O)O[C@@H](C)[C@H](Oc2ccccc2Cl)c2ccccc2)c1OCOC(C)=O [Example 204]", "> 80%"],
  ["COc1ccnc(C(=O)N[C@@H](C)C(=O)O[C@@H](C)[C@H](Oc2ccc(C)cc2Cl)c2ccc(F)cc2)c1OCOC(C)=O [Example 245]", "> 80%"]
]}

* * *

tested on: Phakopsora pachyrhizi; test: Asian Soybean Rust fungicidal activity (PHAKPA); settings: Phakopsora pachyrhizi, in Glycine max, 72 h, read-out: PHAKPA 3DC % Control rating, soybean, high volume, 25 ppm, 3 Day Curative
observable: pest or weed control at 25 ppm

{"columns": ["molecule", "observable", "experimental_value"],
 "data": [
  ["COc1cc(F)ccc1[C@@H](OC1CC1)[C@H](C)OC(=O)[C@H](C)NC(=O)c1nccc(OC)c1OC(C)=O [Example 299]", "pest or weed control at 25 ppm", "< 80%"],
  ["COc1ccnc(C(=O)N[C@@H](C)C(=O)O[C@@H](C)[C@H](Oc2ccccc2)c2ccc(F)cc2Oc2ccccc2)c1OC(C)=O [Example 275]", "pest or weed control at 25 ppm", "< 0%"],
  ["COc1cc(F)ccc1[C@@H](Oc1ccccc1)[C@H](C)OC(=O)[C@H](C)NC(=O)c1nccc(OC)c1OCOC(C)=O [Example 256]", "pest or weed control at 25 ppm", "< 0%"],
  ["COc1ccnc(C(=O)N[C@@H](C)C(=O)O[C@@H](C)C(Oc2ccc(F)cc2)c2ccccc2)c1OC(C)=O (stereo partly shown) [Example 236]", "pest or weed control at 25 ppm", "< 0%"]
]}
